Sourced from ChEMBL document CHEMBL5665443

Provide the reported inhibition of each item.
- Measured on: Methyl-CpG-binding domain protein 4 (Homo sapiens) (UniProt O95243)
- Sequence (O95243 whole entry, the tested form may be a part): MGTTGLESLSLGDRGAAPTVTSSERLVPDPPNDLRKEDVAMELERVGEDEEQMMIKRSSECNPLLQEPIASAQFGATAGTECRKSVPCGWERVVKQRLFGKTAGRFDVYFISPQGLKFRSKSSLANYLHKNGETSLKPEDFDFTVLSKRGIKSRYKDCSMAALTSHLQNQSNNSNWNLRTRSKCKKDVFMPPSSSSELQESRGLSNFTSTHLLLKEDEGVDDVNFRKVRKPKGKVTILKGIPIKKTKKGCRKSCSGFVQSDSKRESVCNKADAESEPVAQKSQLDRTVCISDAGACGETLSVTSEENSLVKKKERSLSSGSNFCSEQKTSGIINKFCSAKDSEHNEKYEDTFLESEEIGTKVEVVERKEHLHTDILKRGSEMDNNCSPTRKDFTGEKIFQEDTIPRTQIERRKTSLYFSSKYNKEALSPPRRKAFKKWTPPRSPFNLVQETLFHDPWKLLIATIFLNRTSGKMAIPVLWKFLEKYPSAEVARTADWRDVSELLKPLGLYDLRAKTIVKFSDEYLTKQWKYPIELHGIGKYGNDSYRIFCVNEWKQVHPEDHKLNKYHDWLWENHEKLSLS
- Measurement setup: Compound Concentration 10.0 uM, Hit No;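 also: MBD4 activity read as fluorescence at 594 nm from cleavage and release of a quenched duplex DNA oligonucleotide, with APE1 coupled to incise the strand and raise turnover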
- Description: Inhibition of MBD4 by quantifying inhibition of MBD4-mediated cleavage and dissociation of quenched duplex DNA oligonucleotides, measured as fluorescence at 594 nm. To generate a functional strand incision and increase turn-over this assay is coupled to APE1.
Where a SMILES comes first, the peptide text is derived from it. [ ]: non-standard residue; d: D form. Arg(Me) = CNC(=N)NCCC[C@H](N)C(=O)O; d4Pal = N[C@H](Cc1ccncc1)C(=O)O; azaGly = NNC(=O)O
Numeric only. Scale: %

Query :: Name the recorded inhibition for Cn1cncc1[C@](O)(COc1ccc(C#N)cc1-c1ccc(OC(F)(F)F)cc1)c1ccc(C#N)cc1 .
Result :: 62

Query :: Name the recorded inhibition for CNC(=N)NCCC[C@H](NC(=O)[C@H](CC(C)C)NC(=O)NNC(=O)[C@H](Cc1ccccc1)NC(=O)[C@H](CO)NC(=O)[C@H](CC(N)=O)NC(=O)[C@@H](Cc1ccncc1)NC(=O)[C@H](N)Cc1ccc(O)cc1)C(=O)N[C@@H](Cc1ccccc1)C(N)=O (H-[dY][d4Pal]NSF[azaGly]L[Arg(Me)]F-NH2) .
Result :: 54

Query :: Name the recorded inhibition for Cc1cc2c(-c3ccco3)cnc(N[C@@H]3CCN(C)C[C@H]3C(=O)NC3CCCCC3)c2[nH]c1=O .
Result :: 58.5

Query :: Name the recorded inhibition for COc1cc(C(=O)NS(=O)(=O)c2ccccc2C)ccc1Cc1cn(C)c2ccc(NC(=O)OC3CCCC3)cc12 .
Result :: 67.2

Query :: Name the recorded inhibition for O=C(O)c1cc(F)c2nc(N3[C@@H]4CC[C@H]3C[C@@H](OCc3c(-c5ccccc5OC(F)(F)F)noc3C3CC3)C4)sc2c1 .
Result :: 61.7

Query :: Name the recorded inhibition for C=CC(=O)Nc1ccc2[nH]c(=O)n(C3CCN(Cc4ccc(-c5ccc6c(c5)NC(=O)CO6)cc4)CC3)c2c1 .
Result :: 22.1

Query :: Name the recorded inhibition for CCOC(=O)c1c(C)[nH]c2ccc3c(c12)CN1CCc2cc(OC)ccc2C1O3 (stereo unspecified) .
Result :: 29.1

Query :: Name the recorded inhibition for CN(C)CCOc1ccc(-c2nc(-c3ccncc3)c(-c3ccc4c(c3)CC/C4=N\O)[nH]2)cc1 .
Result :: 23.9

Query :: Name the recorded inhibition for C[C@H](c1ccc(F)cc1)N(Cc1ccc(Cl)c(C(=O)O)c1)C(=O)c1cnc2ccccc2c1 .
Result :: 52.3

Query :: Name the recorded inhibition for CCOCCn1cc(C(=O)Nc2ccc(-n3nc(-c4cccnc4)cc3C(F)(F)F)cn2)ccc1=O .
Result :: 54.1

Query :: Name the recorded inhibition for CCCN1CCO[C@H]2c3cc(O)ccc3OC[C@@H]21 .
Result :: -3.57

Query :: Name the recorded inhibition for COc1cc(-c2cncc(-c3ccc(N4CCN(C(C)C)CC4)cc3)c2C)cc(F)c1C(=O)N1CCCC1 .
Result :: 0.55

Query :: Name the recorded inhibition for Clc1ccc(OC[C@H]2CCN2)cn1 .
Result :: -2.21

Query :: Name the recorded inhibition for NC1(c2ccc(-c3nc4ccn5c(=O)[nH]nc5c4cc3-c3ccccc3)cc2)CCC1 .
Result :: 37.9

Query :: Name the recorded inhibition for COc1ccc(S(=O)(=O)N2c3ccc(Cl)cc3[C@](O)(c3ccccc3Cl)[C@@H]2C(=O)N2CCC[C@H]2C(N)=O)cc1OC .
Result :: -7.23

Query :: Name the recorded inhibition for CN(Cc1cccc(F)c1CNc1cc(F)c(S(=O)(=O)Nc2cscn2)c(F)c1)C(C)(C)C .
Result :: 28.6
